Target entity: NPM-ALK fusion protein (Homo sapiens)
Construct: endogenous in cells; host or cells: SU-DHL-1; the other entry of the earlier key: NPM1 (P06748, Nucleophosmin)
Sequence (Q9UM73 with tags, fused parts or gaps): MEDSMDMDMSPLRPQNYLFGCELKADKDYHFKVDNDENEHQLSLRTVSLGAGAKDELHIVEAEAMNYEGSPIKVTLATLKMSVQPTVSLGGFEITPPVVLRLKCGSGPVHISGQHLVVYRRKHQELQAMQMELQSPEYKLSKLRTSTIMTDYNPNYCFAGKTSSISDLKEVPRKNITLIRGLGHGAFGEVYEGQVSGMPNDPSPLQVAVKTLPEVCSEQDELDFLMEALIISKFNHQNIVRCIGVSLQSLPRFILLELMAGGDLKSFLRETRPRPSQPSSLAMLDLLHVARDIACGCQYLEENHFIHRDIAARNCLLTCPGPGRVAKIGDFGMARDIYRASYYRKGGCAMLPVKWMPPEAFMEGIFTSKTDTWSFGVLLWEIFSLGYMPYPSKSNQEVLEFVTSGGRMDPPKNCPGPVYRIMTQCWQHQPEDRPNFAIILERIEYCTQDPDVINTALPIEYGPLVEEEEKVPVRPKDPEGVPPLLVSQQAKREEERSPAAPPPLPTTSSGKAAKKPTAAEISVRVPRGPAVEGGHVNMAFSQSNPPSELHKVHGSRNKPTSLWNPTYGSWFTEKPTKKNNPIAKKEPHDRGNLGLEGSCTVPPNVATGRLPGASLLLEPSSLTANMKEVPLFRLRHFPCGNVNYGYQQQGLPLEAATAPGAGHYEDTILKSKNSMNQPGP
Experiment: Western blot of NPM-ALK fusion protein levels in SU-DHL-1 cells
Format: cell-based
Measurement setup: SU-DHL-1 cells, 16 h
Reported metric: significantly reduced ALK fusion protein levels (degraders vs negative controls)

| Compound | Obs value |
| --- | --- |
| Cc1cc(Nc2ncc(Cl)c(Nc3ccccc3S(=O)(=O)C(C)C)n2)c(OC(C)C)cc1C1CCN(C(=O)CCCCC(=O)N[C@H](C(=O)N2C[C@@H](O)C[C@H]2C(=O)NCc2ccc(-c3scnc3C)cc2)C(C)(C)C)CC1 | not |
| Cc1cc(Nc2ncc(Cl)c(Nc3ccccc3S(=O)(=O)C(C)C)n2)c(OC(C)C)cc1C1CCN(C(=O)CCCCC(=O)N[C@H](C(=O)N2C[C@H](O)C[C@H]2C(=O)NCc2ccc(-c3scnc3C)cc2)C(C)(C)C)CC1 | significantly reduced |
| Cc1cc(Nc2ncc(Cl)c(Nc3ccccc3S(=O)(=O)C(C)C)n2)c(OC(C)C)cc1C1CCN(C(=O)COCCOCC(=O)N[C@H](C(=O)N2C[C@H](O)C[C@H]2C(=O)NCc2ccc(-c3scnc3C)cc2)C(C)(C)C)CC1 | significantly reduced |
| Cc1cc(Nc2ncc(Cl)c(Nc3ccccc3S(=O)(=O)C(C)C)n2)c(OC(C)C)cc1C1CCN(C(=O)COCCOCC(=O)N[C@H](C(=O)N2CC(O)C[C@H]2C(=O)NCc2ccc(-c3scnc3C)cc2)C(C)(C)C)CC1 (stereo in doubt) | not |
| Cc1cc(Nc2ncc(Cl)c(Nc3ccccc3S(=O)(=O)C(C)C)n2)c(OC(C)C)cc1C1CCN(C(=O)CCCC(=O)N[C@H](C(=O)N2C[C@H](O)C[C@H]2C(=O)NCc2ccc(-c3scnc3C)cc2)C(C)(C)C)CC1 | significantly reduced |

Turning to the following compound.
[in] Under NPM-ALK fusion protein (Homo sapiens): significantly reduced ALK fusion protein levels (degraders vs negative controls) value of Cc1cc(Nc2ncc(Cl)c(Nc3ccccc3S(=O)(=O)C(C)C)n2)c(OC(C)C)cc1C1CCN(C(=O)CCCC(=O)N[C@H](C(=O)N2C[C@@H](O)C[C@H]2C(=O)NCc2ccc(-c3scnc3C)cc2)C(C)(C)C)CC1 ?
[out] not
